Ref: BigSolDB 2.1

# assay_setup: in limonene, 313 K
property_measured: solubility (mole fraction)
// return just the number, without any unit appended

**Q:** For Brc1c(Br)c(Br)c(Oc2c(Br)c(Br)c(Br)c(Br)c2Br)c(Br)c1Br , what is its reported solubility (mole fraction)?
**A:** 0.00397

* * *

# assay_setup: in limonene, 283 K
property_measured: solubility (mole fraction)
// return just the number, without any unit appended

**Q:** For Brc1c(Br)c(Br)c(Oc2c(Br)c(Br)c(Br)c(Br)c2Br)c(Br)c1Br , what is its reported solubility (mole fraction)?
**A:** 0.00162

* * *

# assay_setup: in acetone, 323 K
property_measured: solubility (mole fraction)
// return just the number, without any unit appended

**Q:** For Brc1c(Br)c(Br)c(Oc2c(Br)c(Br)c(Br)c(Br)c2Br)c(Br)c1Br , what is its reported solubility (mole fraction)?
**A:** 0.000145

* * *

# assay_setup: in toluene, 293 K
property_measured: solubility (mole fraction)
// return just the number, without any unit appended

**Q:** For Brc1c(Br)c(Br)c(Oc2c(Br)c(Br)c(Br)c(Br)c2Br)c(Br)c1Br , what is its reported solubility (mole fraction)?
**A:** 0.00362

* * *

# assay_setup: in limonene, 293 K
property_measured: solubility (mole fraction)
// return just the number, without any unit appended

**Q:** For Brc1c(Br)c(Br)c(Oc2c(Br)c(Br)c(Br)c(Br)c2Br)c(Br)c1Br , what is its reported solubility (mole fraction)?
**A:** 0.00242

* * *

# assay_setup: in ethyl acetate, 283 K
property_measured: solubility (mole fraction)
// return just the number, without any unit appended

**Q:** For Brc1c(Br)c(Br)c(Oc2c(Br)c(Br)c(Br)c(Br)c2Br)c(Br)c1Br , what is its reported solubility (mole fraction)?
**A:** 0.000133

* * *

# assay_setup: in ethyl acetate, 313 K
property_measured: solubility (mole fraction)
// return just the number, without any unit appended

**Q:** For Brc1c(Br)c(Br)c(Oc2c(Br)c(Br)c(Br)c(Br)c2Br)c(Br)c1Br , what is its reported solubility (mole fraction)?
**A:** 0.000346

* * *

# assay_setup: in THF, 293 K
property_measured: solubility (mole fraction)
// return just the number, without any unit appended

**Q:** For Brc1c(Br)c(Br)c(Oc2c(Br)c(Br)c(Br)c(Br)c2Br)c(Br)c1Br , what is its reported solubility (mole fraction)?
**A:** 0.00524

* * *

# assay_setup: in toluene, 303 K
property_measured: solubility (mole fraction)

**Q:** For Brc1c(Br)c(Br)c(Oc2c(Br)c(Br)c(Br)c(Br)c2Br)c(Br)c1Br , what is its reported solubility (mole fraction)?
**A:** 0.0052

* * *

# assay_setup: in toluene, 313 K
property_measured: solubility (mole fraction)
// return just the number, without any unit appended

**Q:** For Brc1c(Br)c(Br)c(Oc2c(Br)c(Br)c(Br)c(Br)c2Br)c(Br)c1Br , what is its reported solubility (mole fraction)?
**A:** 0.00651

* * *

# assay_setup: in acetone, 303 K
property_measured: solubility (mole fraction)

**Q:** For Brc1c(Br)c(Br)c(Oc2c(Br)c(Br)c(Br)c(Br)c2Br)c(Br)c1Br , what is its reported solubility (mole fraction)?
**A:** 9.1e-05

* * *

# assay_setup: in limonene, 303 K
property_measured: solubility (mole fraction)

**Q:** For Brc1c(Br)c(Br)c(Oc2c(Br)c(Br)c(Br)c(Br)c2Br)c(Br)c1Br , what is its reported solubility (mole fraction)?
**A:** 0.00282

* * *

# assay_setup: in acetone, 313 K
property_measured: solubility (mole fraction)
// return just the number, without any unit appended

**Q:** For Brc1c(Br)c(Br)c(Oc2c(Br)c(Br)c(Br)c(Br)c2Br)c(Br)c1Br , what is its reported solubility (mole fraction)?
**A:** 0.000119

* * *

# assay_setup: in THF, 283 K
property_measured: solubility (mole fraction)
// return just the number, without any unit appended

**Q:** For Brc1c(Br)c(Br)c(Oc2c(Br)c(Br)c(Br)c(Br)c2Br)c(Br)c1Br , what is its reported solubility (mole fraction)?
**A:** 0.00449

* * *

# assay_setup: in acetone, 293 K
property_measured: solubility (mole fraction)
// return just the number, without any unit appended

**Q:** For Brc1c(Br)c(Br)c(Oc2c(Br)c(Br)c(Br)c(Br)c2Br)c(Br)c1Br , what is its reported solubility (mole fraction)?
**A:** 6e-05

* * *

# assay_setup: in ethyl acetate, 303 K
property_measured: solubility (mole fraction)

**Q:** For Brc1c(Br)c(Br)c(Oc2c(Br)c(Br)c(Br)c(Br)c2Br)c(Br)c1Br , what is its reported solubility (mole fraction)?
**A:** 0.000252

* * *

# assay_setup: in limonene, 323 K
property_measured: solubility (mole fraction)
// return just the number, without any unit appended

**Q:** For Brc1c(Br)c(Br)c(Oc2c(Br)c(Br)c(Br)c(Br)c2Br)c(Br)c1Br , what is its reported solubility (mole fraction)?
**A:** 0.00485
